Reported activity (max response) is given for each of the following compounds.
Assay: Cellular viability qHTS for adrenocortical cancer (ACC) cell line SW-13 (AID 1963989);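 also: cells grown in serum-free medium with ITS supplement; % is scaled to controls: 0 for no effect and ±100 for the full control effect; nearly all actives have a fitted effect of over 65% in size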
Settings: SW-13 ACC cells viability, CellTiter-Glo, 48 h; hits give low values
Excerpt: PI: Naris Nilubol, MD Surgical Oncology Program, National Cancer Institute (NCI) National Institute of Health (NIH), Bethesda, Maryland Adrenocortical cancer (ACC) is a rare malignancy with poor survival outcomes and few treatment options. Currently, mitotane is the only FDA-approved therapy for ACC. […] Through a quantitative high-throughput drug screen (qHTS), we identified auranofin (AF), a thioredoxin reductase (TXNRD) inhibitor, as a promising candidate drug. […]
Records with an inconclusive call do not appear. Activity calls are given as the source filed them. Calls follow the shape of the dose curve; as a rule, active = well fitted cell-killing curve with a large enough effect; inconclusive = small, poorly fitted or top-dose-only effect; inactive = flat fitted curve, though single readings scatter.

COMPOUND	activity (max response)
CCCN(CCC)CCc1cccc2c1CC(=O)N2	8.18% (inactive)
CC(=O)OCC(=O)[C@@]1(OC(C)=O)[C@@H](C)C[C@H]2[C@@H]3C[C@H](F)C4=CC(=O)C=C[C@]4(C)[C@@]3(F)[C@@H](O)C[C@@]21C	3.57% (inactive)
CC1(C)O[C@@H]2C[C@H]3[C@@H]4CCC5=CC(=O)CC[C@]5(C)[C@@]4(F)[C@@H](O)C[C@]3(C)[C@]2(C(=O)CCl)O1	9.64% (inactive)
CC(C)(C)c1nc2c3cc[nH]c(=O)c3c3cc(F)ccc3c2[nH]1	-16.1% (inactive)
CC12CCC(CC1)C(C)(C)O2	13.8% (inactive)
C=C(C)[C@@H]1CC[C@]2(C(=O)O)CC[C@]3(C)[C@H](CC[C@@H]4[C@@]5(C)CC[C@H](O)C(C)(C)[C@@H]5CC[C@]43C)[C@@H]12	19.8% (inactive)
CC(C)NCC(O)COc1cccc2[nH]ccc12 (configuration not stated)	-13.8% (inactive)
CCOC(=O)C1=C(C)NC2=C(C(=O)CC(C)(C)C2)C1c1ccc(-c2ccccc2)cc1 (configuration not stated)	-12.6% (inactive)
CNC(=O)c1ccc(N2C(=S)N(c3ccc(C#N)c(C(F)(F)F)c3)C(=O)C2(C)C)cc1F	-1.24% (inactive)
O=C(Nc1ccc(C(=O)O)c(O)c1)c1ccccc1	1.55% (inactive)
O=C1CCCC2=C1C(c1[nH]ncc1Cl)N=C(Nc1nc3ccccc3o1)N2 (configuration not stated)	-9.4% (inactive)
OC[C@H](Cc1ccccc1)Nc1nc(Oc2ccc3c(c2)CCC3)nc2c1ncn2Cc1ccc(-c2ccccc2)cc1	-12.9% (inactive)
CC(CCc1ccc2c(c1)OCO2)NN (configuration not stated)	9.04% (inactive)
Cc1ccc(/C=N/NC(=O)c2ccccc2Oc2ccccc2)o1	-16.3% (inactive)
COc1cc2c(cc1OC)CC(=O)N(CCCN(C)C[C@H]1Cc3cc(OC)c(OC)cc31)CC2	10.3% (inactive)
CCOC(=O)C(C#N)=C(c1ccccc1)c1ccccc1	-5.89% (inactive)
CCCCCCCCCCCCCCCC(=O)OC(C)C	6.75% (inactive)
CN1CCN(c2cc(C(=O)Nc3ccc4c(c3)-c3c(c(C(N)=O)nn3-c3ccc(F)cc3)CC4)c(Cl)cn2)CC1	-15.3% (inactive)
CN(C)CCn1nnnc1SCC1=C(C(=O)O)N2C(=O)[C@@H](NC(=O)Cc3csc(N)n3)[C@H]2SC1	8.48% (inactive)
CCC(CN)=C(c1ccccc1)c1ccccc1	-12.8% (inactive)
N#Cc1c(N(CC(=O)O)CC(=O)O)sc(C(=O)O)c1CC(=O)O	0.42% (inactive)
COc1ccc2c(c1)c(CC(=O)OCC(=O)O)c(C)n2C(=O)c1ccc(Cl)cc1	-2.34% (inactive)
O=C(NCCS(=O)(=O)c1ccc(C(F)(F)F)cn1)c1ccc(Cl)cc1	0.68% (inactive)
CNC1(C)C2CCC(C2)C1(C)C (configuration not stated)	-10.9% (inactive)
CN1CCN(c2ccc(-c3cccc(CN4CCOCC4)c3)cc2NC(=O)c2c[nH]c(=O)cc2C(F)(F)F)CC1	-3.17% (inactive)
CN(C)CCOc1ccccc1Cc1ccccc1	9.36% (inactive)
O=C1Cc2cc(Cl)ccc2N1	11.1% (inactive)
N#C[C@H]1C[C@H]2C[C@@H]2N1C(=O)[C@@H](N)C12CC3CC(CC(O)(C3)C1)C2	11.7% (inactive)
COc1ccccc1N1CCN(CCCCNC(=O)c2ccc(-c3ccc(C(C)=O)cc3)cc2)CC1	-20.9% (inactive)
Clc1cccc(Cl)c1NC1=NCCN1	13.1% (inactive)
O=C1CC2(CCCC2)CC(=O)N1CCNCC1COc2ccccc2O1 (configuration not stated)	6.61% (inactive)
C[C@@H](N)C1CCC(C(=O)Nc2ccncc2)CC1 (some centres not stated)	-5.19% (inactive)

* * *

Assay: Cellular viability qHTS for adrenocortical cancer (ACC) cell line NCI-H295R (AID 1963990); also: nearly all actives have a fitted effect of over 60% in size
Conditions: CellTiter-Glo ATP luminescence, 48 h; series mostly up to 46.1 µM
Results filed as inconclusive are left out. Calls of active or inactive are those of the source. The call rests on the fitted dose curve; in most records, active means well fitted cell-killing curve with a large enough effect; inconclusive means small, poorly fitted or top-dose-only effect; inactive means flat fitted curve, though single readings scatter. Peptide text beside a SMILES is read from it.
Outcome codes: active, inactive

MOLECULE	LABEL CLASS
Cc1cc(Nc2cc(N3CCN(C)CC3)nc(Sc3ccc(NC(=O)C4CC4)cc3)n2)n[nH]1	active
Cc1nnc(C(C)C)n1C1CC2CCC(C1)N2CCC(NC(=O)C1CCC(F)(F)CC1)c1ccccc1 (configuration not stated)	inactive
CN1C(=O)N[C@H](Cc2c[nH]c3c(Cl)cccc23)C1=O	inactive
Cc1ccc(S(=O)(=O)N[C@@H](Cc2ccccc2)C(=O)CCl)cc1	active
Cc1ccc(F)c(NC(=O)Nc2ccc(-c3cccc4[nH]nc(N)c34)cc2)c1	active
CCC(C)n1ncn(-c2ccc(N3CCN(c4ccc(OC[C@H]5CO[C@](Cn6cncn6)(c6ccc(Cl)cc6Cl)O5)cc4)CC3)cc2)c1=O (some centres not stated)	inactive
NC(=O)c1ccc(-c2nc(-c3ccc4c(c3)OCO4)c(-c3ccccn3)[nH]2)cc1	inactive
Nc1ncnc2c1ncn2[C@@H]1O[C@H](CO)[C@@H](O)[C@H]1O	inactive
O=C(OCC(COC(=O)c1cccnc1)(COC(=O)c1cccnc1)COC(=O)c1cccnc1)c1cccnc1	inactive
COc1cc2ncnc(Nc3cccc(Cl)c3F)c2cc1OC(=O)N1CCN(C)C[C@H]1C	inactive
COC(=O)[C@H](Cc1ccccc1)NC(=O)[C@@H](N)CC(=O)O (H-Asp-Phe-OMe)	inactive
CC(=O)Nc1ccc(C(=O)Nc2ccccc2N)cc1	active
O=C(O)c1cc(O)c2c(c1)C(=O)c1cccc(O)c1C2=O	inactive
COc1cc2c(Oc3ccc(-c4cnc(Nc5ccc(F)cc5)n(C)c4=O)cc3F)ccnc2cc1OCCCN1CCOCC1	active
CC(=O)OC(C)C[N+](C)(C)C (configuration not stated)	inactive
CCN(Cc1ccncc1)C(=O)C(CO)c1ccccc1 (configuration not stated)	inactive
COc1ccc(CN(CCN(C)C)c2ccccn2)cc1	inactive
CC(=O)Nc1nnc(S(N)(=O)=O)s1	inactive
c1ccc(CNc2nc(NCc3ccccc3)c3ccccc3n2)cc1	active
CCCN1C[C@H](CSC)C[C@@H]2c3cccc4[nH]cc(c34)C[C@H]21	inactive
O=C(Nc1ccc(-c2ccnc(Nc3ccc(N4CCOCC4)cc3)n2)cc1)C1CCCN1 (configuration not stated)	inactive
COCc1c(-c2ccc(NC(=O)Nc3cc(C(F)(F)F)ccc3F)c(F)c2)c2c(N)ncnn2c1CN1CCOCC1	inactive
CC(=O)Nc1ncc([N+](=O)[O-])s1	inactive
Oc1ccc(C2CNCCc3c2cc(O)c(O)c3Cl)cc1 (configuration not stated)	inactive
CC(O)(P(=O)(O)O)P(=O)(O)O	inactive
COC(=O)c1ccc2c(C(=Nc3ccc(N(C)C(=O)CN4CCN(C)CC4)cc3)c3ccccc3)c(O)[nH]c2c1	active
Cc1cc(C(C)(C)C)c(O)c(C(C)(C)C)c1	active
Cc1c(C(N)=O)cc([N+](=O)[O-])cc1[N+](=O)[O-]	inactive
O=c1[nH]c(=O)n([C@H]2C[C@H](O)[C@@H](CO)O2)cc1I	inactive
COc1ccc2nc3n[nH]c(C)c3c(NCCOCCO)c2c1	inactive
C#C[C@]1(O)CC[C@H]2[C@@H]3CCc4cc(OC5CCCC5)ccc4[C@H]3CC[C@@]21C	active
CCOc1nc2cccc(C(=O)O)c2n1Cc1ccc(-c2ccccc2-c2nn[nH]n2)cc1	inactive
c1ccc2c(-c3cnn4cc(-c5ccc(N6CCNCC6)cc5)cnc34)ccnc2c1	active
CC(=O)N[C@H]1CSSC[C@@H](C(N)=O)NC(=O)[C@H](C(C)C)NC(=O)[C@H](C)NC(=O)[C@H](Cc2cnc[nH]2)NC1=O	inactive
COc1ccc([C@@H](O)[C@@H](C)Oc2ccc([C@H]3O[C@H](c4ccc(O[C@H](C)[C@H](O)c5ccc(OC)c(OC)c5)c(OC)c4)[C@H](C)[C@H]3C)cc2OC)cc1OC	active
Cc1c(F)cccc1NC(=O)Nc1ccc(Cl)c(S(=O)(=O)[C@H]2CCCNC2)c1O	inactive
CC[N+](C)(CC)CCOC(=O)C1c2ccccc2Oc2ccccc21	inactive
